Test system: U2OS
Experiment: cell viability relative to DMSO; higher = less toxic
Settings: 72 h; 10000 nM
Where a name gives a salt, the structure may show the parent alone.
Answer each item with its documented cell viability.
Please respond with the number in % and leave the unit unwritten.

Ask: cell viability lookup needed for CC(=O)N[C@@H](C=O)[C@@H](O)[C@H](O)[C@H](O)CO [N-acetyl-D-glucosamine] , thanks.
Result: 102

Ask: Which cell viability reading was recorded for the compound CC(Cc1cccc(C(F)(F)F)c1)NCCOC(=O)c1ccccc1 (stereo not given) [benfluorex] ?
Result: 100

Ask: cell viability lookup needed for N=C(NCCC[C@H](N)C(=O)O)N[N+](=O)[O-] [NG-nitro-arginine] , thanks.
Result: 97.9

Ask: Which value of cell viability has been reported for C[C@@H]1CN([C@H]2CC[C@](C#N)(c3ccc(F)cc3)CC2)CC[C@]1(C(=O)O)c1ccccc1 [levocabastine] in the records?
Result: 105

Ask: # get_value(readout='cell viability', item= CCOC(=O)Nc1ccc2c(c1)N(C(=O)CN(CC)CC)c1ccccc1CC2 [CINPA-1] )
Result: 99.1

Ask: cell viability for COc1cc(C(=O)NCc2ccc(OCCN(C)C)cc2)cc(OC)c1OC [trimethobenzamide] ?
Result: 100

Ask: Recorded cell viability of CC1Cc2ccccc2N1NC(=O)c1ccc(Cl)c(S(N)(=O)=O)c1 (stereo not given) [indapamide] , please.
Result: 98.3

Ask: Look at this compound and give its reported cell viability. COc1ccc(-n2c(SCCCN3C(=O)c4cccc5cccc(c45)C3=O)nnc2-c2ccncc2)cc1 [WIKI4]
Result: 87.3

Ask: Can you look up the measured cell viability of N[C@H](C(=O)O)c1cc(O)no1 [ibotenic-acid] for me?
Result: 92.4

Ask: Return reported cell viability; argument: Nc1nc(OCC2CCCCC2)c2nc[nH]c2n1 [NU-2058]
Result: 96

Ask: Quick one: cell viability of O=C(NNc1ccccc1)c1ccncc1 [plurisin-1] ?
Result: 99.6

Ask: # query: cell viability of entry O=C(C[S+]([O-])Cc1ccco1)NC/C=C\COc1cc(CN2CCCCC2)ccn1 (stereo not given) [lafutidine]
Result: 94.8

Ask: Value lookup for cell viability; key = C[C@H]1C[C@@H]2[C@H]([C@@H](O)C[C@@]3(C)[C@H]2CC[C@]3(O)C(=O)COC(=O)CCC(=O)O)[C@@]2(C)C=CC(=O)C=C12 [methylprednisolone-sodium-succinate]
Result: 93.9

Ask: Bench note: what cell viability did O=C(O)CCc1ccc(NCc2cccc(Oc3ccccc3)c2)cc1 [GW-9508] show?
Result: 97.6

Ask: What value of measured cell viability is listed for Cc1ccc(C(=O)N(CCCN)[C@@H](c2oc3cc(Cl)ccc3c(=O)c2Cc2ccccc2)C(C)C)cc1 ?
Result: 8.2

Ask: Param item = C=CC[N+]1([C@H]2C[C@H]3[C@@H]4CC[C@H]5C[C@H](O)[C@@H](N6CCOCC6)C[C@]5(C)[C@H]4CC[C@]3(C)[C@H]2OC(C)=O)CCCC1 [ROCURONIUM BROMIDE] ; retrieve measured cell viability.
Result: 108

Ask: // returns reported cell viability for input COc1ccc(-c2oc3cc(OC)ccc3c2C(=O)c2ccc(C#N)cc2)cc1
Result: 95.4

Ask: Given CC(C)OC(=O)C(C)(C)Oc1ccc(C(=O)c2ccc(Cl)cc2)cc1 [fenofibrate] , state its recorded cell viability.
Result: 92.6

Ask: Fill in the blank: the reported cell viability of CCCCN(CCCC)C(=O)CN1C[C@H](c2ccc3c(c2)OCO3)[C@@H](C(=O)O)[C@@H]1c1ccc(OC)cc1 [atrasentan] is ____.
Result: 106

Ask: Looking for the measured cell viability of CC(=O)OCC1=C(C(=O)O)N2C(=O)[C@@H](NC(=O)CS/C(=N/C(C)C)NC(C)C)[C@H]2SC1 [cefathiamidine] , can you help?
Result: 102

Ask: For the compound shown here, O=c1oc2cc(O)ccc2s1 [tioxolone] , give the reported cell viability.
Result: 95.6

Ask: Return reported cell viability; argument: CN(c1ccc(NC(=O)Nc2ccccc2)cc1)S(=O)(=O)c1cnn(-c2ccc(F)cc2)c1 [BTT-3033]
Result: 99.8

Ask: May I ask what cell viability has been recorded for Cc1ncc([N+](=O)[O-])n1CC(O)CCl (stereo not given) [ornidazole] ?
Result: 102

Ask: Please look up its cell viability: COc1cccc(-c2ccc(NC(=O)C3=C(C(=O)O)CCC3)c(F)c2)c1
Result: 96.2

Ask: State the recorded cell viability for this entry: CC[C@@H](c1cccc(O)c1)[C@@H](C)CN(C)C [Tapentadol (hydrochloride)]
Result: 97.8
